Sourced from ChEMBL document CHEMBL4406857

target-under-test: Isocitrate dehydrogenase [NADP] cytoplasmic (Homo sapiens)
Sequence (O75874 whole entry): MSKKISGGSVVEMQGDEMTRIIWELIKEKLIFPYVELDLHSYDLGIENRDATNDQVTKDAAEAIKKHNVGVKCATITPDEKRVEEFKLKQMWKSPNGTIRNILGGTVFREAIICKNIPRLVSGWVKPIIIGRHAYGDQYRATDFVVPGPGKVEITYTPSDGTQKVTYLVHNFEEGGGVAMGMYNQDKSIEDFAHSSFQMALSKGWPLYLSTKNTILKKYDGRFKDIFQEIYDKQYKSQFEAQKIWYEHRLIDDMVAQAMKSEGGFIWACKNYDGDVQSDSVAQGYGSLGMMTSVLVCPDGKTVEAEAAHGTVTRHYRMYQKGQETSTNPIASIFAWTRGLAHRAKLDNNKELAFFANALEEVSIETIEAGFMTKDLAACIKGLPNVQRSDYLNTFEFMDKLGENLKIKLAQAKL
assay-protocol: Inhibition of wild type recombinant human C-terminal His8-tagged IDH1 expressed in Escherichia coli BL21 assessed as reduction in NADP consumption using DL-isocitrate as substrate preincubated for 60 mins followed by substrate addition and measured for 60 mins in presence of NADP by diaphorase/resazurin-based fluorescence assay
property-measured: IC50 (µM)
Number only, in µM; omit the unit.

These solved cases illustrate the format of a correct answer.
| mol-smiles | unit-text | IC50 |
| --- | --- | --- |
| C[C@H](Nc1nccc(N2C(=O)OC[C@@H]2[C@H](C)F)n1)c1ncn2c1COc1cc(Cl)ccc1-2 | µM | 7.1 |
| C[C@H](Nc1nccc(N2C(=O)OC[C@@H]2[C@H](C)F)n1)c1ncn2c1COc1cc(C(F)(F)F)ccc1-2 | µM | 2.84 |

# context switch: different compound, same IC50
### Prompt Item C[C@H](Nc1nccc(N2C(=O)OC[C@@H]2[C@H](C)F)n1)c1ncn2c1CCc1cc(C(F)(F)F)ccc1-2 : provide IC50
### Response 6.68
